molecular target: KRAS Q61H (Homo sapiens, UniProt P01116+P62937, Q61H); experiment: Disruption of BRAF RBD interaction with Ras (FRET / MOA assay, with Cyclophilin A); format: biochemical; conditions: KRAS Q61H; read-out: KRAS Q61H FRET data IC50
Sequence (P01116 1-169 isoform P01116-2 Q61H limits assumed): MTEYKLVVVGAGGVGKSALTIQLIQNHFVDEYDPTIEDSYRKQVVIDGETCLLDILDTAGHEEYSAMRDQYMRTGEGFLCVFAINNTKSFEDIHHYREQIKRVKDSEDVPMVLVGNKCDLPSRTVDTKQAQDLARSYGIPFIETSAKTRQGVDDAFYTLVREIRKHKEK
Sequence (P62937 whole entry): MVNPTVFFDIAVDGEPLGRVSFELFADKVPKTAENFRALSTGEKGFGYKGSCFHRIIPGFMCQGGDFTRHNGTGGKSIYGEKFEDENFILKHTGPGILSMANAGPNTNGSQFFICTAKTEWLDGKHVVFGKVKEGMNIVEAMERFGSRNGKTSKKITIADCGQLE
readout_name: IC50

Entry CCn1c(-c2cccnc2[C@H](C)OC)c2c3cc(ccc31)-c1cccc(c1)C[C@H](NC(=O)[C@@H](CN1CC[C@]3(CCN(C(=O)C#C[C@H]4COCCN4C)C3)C1=O)C(C)C)C(=O)N1CCCC(N1)C(=O)OCC(C)(C)C2 (some centres unmarked) : reported IC50 = ?
1000 to 10000 nM

Please look up its IC50: CCn1c(-c2cccnc2[C@H](C)OC)c2c3cc(ccc31)-c1cc(O)cc(c1)C[C@H](NC(=O)[C@H](C(C)C)N(C)C(=O)[C@@H]1CCN[C@@H]1c1ccccc1)C(=O)N1CCC[C@H](N1)C(=O)OCC(C)(C)C2 (atropisomer, axis not shown)
< 10 nM

GET /values?readout=IC50&item= `CCn1c(-c2cccnc2[C@H](C)OC)c2c3cc(ccc31)-c1cc(O)cc(c1)C[C@H](NC(=O)[C@H](C1CCCC1)N(C)C(=O)N1CCS(=O)(=NC)CC1)C(=O)N1CCC[C@H](N1)C(=O)OCC(C)(C)C2`
10 to 100 nM

For `CCn1c(-c2cccnc2[C@H](C)OC)c2c3cc(ccc31)-c1csc(n1)C[C@H](NC(=O)[C@H](C(C)C)N(C)C(=O)[C@H]1CCN(C(=O)CNC)C1)C(=O)N1CCC[C@H](N1)C(=O)OCC(C)(C)C2` , what is its reported IC50?
100 to 1000 nM

Name the recorded IC50 for `CCn1c(-c2cccnc2[C@H](C)OC)c2c3cc(ccc31)-c1csc(n1)C[C@H](NC(=O)[C@H](C(C)C)N(C)C(=O)N1CC3CC(C1)N3C)C(=O)N1CCC[C@H](N1)C(=O)OCC(C)(C)C2` .
100 to 1000 nM

# get_value(readout='IC50', item= `CCn1c(-c2cccnc2[C@H](C)OC)c2c3cc(ccc31)-c1csc(n1)C[C@H](NC(=O)[C@H](C(C)C)N(C)C(=O)N1CCC13CN(C)C3)C(=O)N1CCC[C@H](N1)C(=O)OCC(C)(C)C2` )
10 to 100 nM

I'd like to know its IC50. The compound in question is CCn1c(-c2cccnc2[C@H](C)OC)c2c3nc(ccc31)-c1csc(n1)C[C@H](NC(=O)[C@H](C(C)C)N(C)C(=O)N1CC(OC)C1)C(=O)N1CCC[C@H](N1)C(=O)OCC(C)(C)C2 (atropisomer, axis not shown)
1000 to 10000 nM

Look up IC50 for this compound: CCn1c(-c2cccnc2[C@H](C)OC)c2c3cc(ccc31)-c1csc(n1)C[C@H](NC(=O)[C@H](CC1CC1)N(C)C(=O)N1CC(OC)C1)C(=O)N1CCC[C@H](N1)C(=O)OCC(C)(C)C2 (atropisomer, axis not shown)
10 to 100 nM

* * *

target: KRAS G12C (Homo sapiens, UniProt P01116+P62937, G12C); assay: Disruption of BRAF RBD interaction with Ras (FRET / MOA assay, with Cyclophilin A); type: biochemical; settings: read-out: KRAS G12C FRET data, IC50
Sequence (P01116 1-169 isoform P01116-2 G12C, one chain of several): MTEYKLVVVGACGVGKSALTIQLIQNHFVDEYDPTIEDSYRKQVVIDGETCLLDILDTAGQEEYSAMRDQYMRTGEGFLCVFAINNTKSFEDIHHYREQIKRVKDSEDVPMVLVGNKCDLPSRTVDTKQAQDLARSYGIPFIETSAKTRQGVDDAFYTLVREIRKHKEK
What IC50 was measured for each of the following?

Look up IC50: CCn1c(-c2cccnc2[C@H](C)OC)c2c3cc(ccc31)-c1csc(n1)C[C@H](NC(=O)[C@H](C(C)C)N(C)C(=O)N1CC3(CC(N(C)C)C3)C1)C(=O)N1CCC[C@H](N1)C(=O)OCC(C)(C)C2 (atropisomer, axis not shown)
10 to 100 nM

What does the record list as IC50 for CCn1c(-c2cc(N3CCN(C)CC3)cnc2[C@H](C)OC)c2c3cc(ccc31)-c1csc(n1)C[C@H](NC(=O)[C@H](C1CCCC1)N(C)C(=O)N1CCC1)C(=O)N1CCC[C@H](N1)C(=O)OCC(C)(C)C2 (atropisomer, axis not shown) ?
10 to 100 nM

Give the measured IC50 of `CCn1c(-c2cccnc2[C@H](C)OC)c2c3cc(ccc31)-c1cc(O)cc(c1)C[C@H](NC(=O)[C@H](C(C)C)N(C)C(=O)[C@H]1CCN[C@H]1C)C(=O)N1CCC[C@H](N1)C(=O)OCC(C)(C)C2` .
10 to 100 nM

Which IC50 value belongs to CCn1c(-c2cccnc2[C@H](C)OC)c2c3cc(ccc31)-c1csc(n1)C[C@H](NC(=O)[C@H](C(C)C)N(C)C(=O)N1CC(C(C)(C)OC)C1)C(=O)N1CCC[C@H](N1)C(=O)OCC(C)(C)C2 (atropisomer, axis not shown) ?
10 to 100 nM

Given the entry CCn1c(-c2cccnc2[C@H](C)OC)c2c3cc(ccc31)-c1cc(O)cc(c1)C[C@H](NS(=O)(=O)N1CCN(C)CC1)C(=O)N1CCC[C@H](N1)C(=O)OCC(C)(C)C2 (racemic) , report its measured IC50.
> 10000 nM

Sample `CCn1c(-c2cccnc2[C@H](C)OC)c2c3cc(ccc31)-c1csc(n1)C[C@H](NC(=O)[C@H](C(C)C)N(C)C(=O)N1CCOC[C@@H]1c1ccccc1)C(=O)N1CCC[C@H](N1)C(=O)OCC(C)(C)C2` — what was its IC50?
1000 to 10000 nM

So what's the measured IC50 for this one? `CCn1c(-c2cccnc2[C@H](C)OC)c2c3cc(ccc31)-c1cc(O)cc(c1)C[C@H](NC(=O)[C@H](C(C)C)N(C)C(=O)[C@@H]1CC1(C)C)C(=O)N1CCC[C@H](N1)C(=O)OCC(C)(C)C2`
10 to 100 nM

Which measured IC50 value corresponds to `CCn1c(-c2cccnc2[C@H](C)OC)c2c3cc(ccc31)-c1cccc(c1)C[C@H](NC(=O)[C@H](C(C)C)N(C)C(=O)[C@H]1CCN(C(=O)CN(C)C)C1)C(=O)N1CCC[C@H](N1)C(=O)OCC(C)(C)C2` ?
100 to 1000 nM

// returns reported IC50 for input CCn1c(-c2cccnc2[C@H](C)OC)c2c3cc(ccc31)-c1cc(O)cc(c1)C[C@H](NC(=O)[C@H](C(C)C)N(C)C(=O)[C@H]1CCN(C(=O)CNC)C1)C(=O)N1CCC[C@H](N1)C(=O)OCC(C)(C)C2 (atropisomer, axis not shown)
10 to 100 nM

For the molecule `CCn1c(-c2cccnc2[C@H](C)OC)c2c3cc(ccc31)-c1cc(O)cc(c1)C[C@H](NC(=O)[C@H](C(C)C)N(C)C(=O)[C@H]1CCN(C(=O)OC(C)(C)C)C1)C(=O)N1CCC[C@H](N1)C(=O)OCC(C)(C)C2` , what IC50 is on record?
10 to 100 nM

Give its IC50 value. Item: CCn1c(-c2cccnc2[C@H](C)OC)c2c3cc(ccc31)-c1csc(n1)C[C@H](NC(=O)[C@H](C(C)C)N(C)C(=O)N1CC3(CC(N4CCOCC4)C3)C1)C(=O)N1CCC[C@H](N1)C(=O)OCC(C)(C)C2 (atropisomer, axis not shown)
100 to 1000 nM

Give the measured IC50 of `CCn1c(-c2cccnc2[C@H](C)OC)c2c3cc(ccc31)-c1csc(n1)C[C@H](NC(=O)[C@H](C(C)C)N(C)C(=O)N1CCCC[C@@H](N(C)C)C1)C(=O)N1CCC[C@H](N1)C(=O)OCC(C)(C)C2` .
100 to 1000 nM

Suppose we examine the molecule CCn1c(-c2cccnc2[C@H](C)OC)c2c3cc(ccc31)-c1cc(O)cc(c1)C[C@H](NC(=O)[C@H](C(C)C)N(C)C(=O)C1NCCC13CC3)C(=O)N1CCC[C@H](N1)C(=O)OCC(C)(C)C2 (some centres unmarked) ; what IC50 value has been reported?
10 to 100 nM

Name the recorded IC50 for `CCn1c(-c2cccnc2[C@H](C)OC)c2c3cc(ccc31)-c1cc(O)cc(c1)C[C@H](NC(=O)[C@H](C(C)C)N(C)C(=O)[C@H]1CCN(C(=O)CN(C)C)C1)C(=O)N1CCC[C@H](N1)C(=O)OCC(C)(C)C2` .
10 to 100 nM

Query (molecule): `CCn1c(-c2cnccc2[C@H](C)OC)c2c3cc(ccc31)-c1cc(O)cc(c1)C[C@H](NC(=O)[C@H](C(C)C)N(C)C(C)=O)C(=O)N1CCC[C@H](N1)C(=O)OCC(C)(C)C2` ; field requested: IC50
100 to 1000 nM

Give the measured IC50 of `CCn1c(-c2cccnc2[C@H](C)OC)c2c3cc(ccc31)-c1cc(O)cc(c1)C[C@H](NC(=O)[C@H](C(C)C)N(C)C(=O)C1(CO)CC1)C(=O)N1CCC[C@H](N1)C(=O)OCC(C)(C)C2` .
100 to 1000 nM

Name the recorded IC50 for `CCn1c(-c2cccnc2[C@H](C)OC)c2c3cc(ccc31)-c1csc(n1)C[C@H](NC(=O)[C@H](C(C)C)N(C)C(=O)N1CC[C@@H]1C(=O)NC)C(=O)N1CCC[C@H](N1)C(=O)OCC(C)(C)C2` .
1000 to 10000 nM
